Hey, just so you know, these numbers are from ChEMBL document CHEMBL1158373.

test-target: hERG (KCNH2) (Homo sapiens)
Sequence (Q12809 whole entry): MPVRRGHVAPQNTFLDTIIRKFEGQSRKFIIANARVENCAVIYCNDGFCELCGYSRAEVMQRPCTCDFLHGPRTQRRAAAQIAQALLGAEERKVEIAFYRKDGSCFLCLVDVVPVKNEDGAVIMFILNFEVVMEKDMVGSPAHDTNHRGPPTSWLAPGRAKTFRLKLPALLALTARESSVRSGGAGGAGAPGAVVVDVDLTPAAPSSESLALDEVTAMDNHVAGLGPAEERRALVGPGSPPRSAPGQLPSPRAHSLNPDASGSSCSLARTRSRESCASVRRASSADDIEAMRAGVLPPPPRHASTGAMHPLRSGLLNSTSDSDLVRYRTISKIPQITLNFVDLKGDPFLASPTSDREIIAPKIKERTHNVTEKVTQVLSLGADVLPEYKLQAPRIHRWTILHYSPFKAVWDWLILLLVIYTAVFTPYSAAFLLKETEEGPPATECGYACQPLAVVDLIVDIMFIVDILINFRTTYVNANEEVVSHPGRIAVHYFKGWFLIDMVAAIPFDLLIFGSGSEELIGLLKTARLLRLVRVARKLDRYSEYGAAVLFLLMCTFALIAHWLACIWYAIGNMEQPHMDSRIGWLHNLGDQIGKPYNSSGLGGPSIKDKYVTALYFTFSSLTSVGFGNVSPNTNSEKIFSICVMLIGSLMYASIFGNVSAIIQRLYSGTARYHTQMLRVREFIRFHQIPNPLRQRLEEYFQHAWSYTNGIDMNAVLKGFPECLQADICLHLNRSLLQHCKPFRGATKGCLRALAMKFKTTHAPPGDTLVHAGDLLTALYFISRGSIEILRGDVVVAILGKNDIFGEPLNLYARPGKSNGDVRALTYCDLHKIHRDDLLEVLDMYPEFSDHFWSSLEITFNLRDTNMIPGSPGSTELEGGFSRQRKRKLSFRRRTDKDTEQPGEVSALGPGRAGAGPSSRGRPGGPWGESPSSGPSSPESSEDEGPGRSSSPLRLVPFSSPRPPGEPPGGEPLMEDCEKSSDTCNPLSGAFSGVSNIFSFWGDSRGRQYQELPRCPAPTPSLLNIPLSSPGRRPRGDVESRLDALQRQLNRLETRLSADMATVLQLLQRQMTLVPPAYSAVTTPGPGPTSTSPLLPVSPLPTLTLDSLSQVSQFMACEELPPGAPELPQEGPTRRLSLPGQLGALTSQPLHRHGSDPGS
experimental-details: Inhibition of human ERG in MCF7 cells
experimental-setup: human, mcf7
readout-kind: IC50

Asked: Answer with the recorded IC50 for the compound listed here: CN1CCN(CCCCN2C(=O)CN(/N=C/c3ccc(-c4ccc(Cl)cc4)o3)C2=O)CC1 [AZIMILIDE]
Given back: 562 nM

###

test-target: Voltage-gated inwardly rectifying potassium channel KCNH2 (Homo sapiens)
Sequence (Q12809 whole entry): as above
experimental-details: Inhibition of human ERG in MCF7 cells
readout-kind: pIC50
In textbook form, pIC50 equals minus log to base ten of the concentration in mol/L.

Asked: Give Voltage-gated inwardly rectifying potassium channel KCNH2 (Homo sapiens) pIC50 for the following compound: COc1c(N2CCNC(C)C2)c(F)cc2c(=O)c(C(=O)O)cn(C3CC3)c12 (stereo unspecified)
Given back: 3.89

###

experimental-details: Lipophilicity, log D at pH 7.0
experimental-setup: buffer
readout-kind: logD

molecule="Fc1ccc(Cn2c(NC3CCNCC3)nc3ccccc32)cc1 [TECASTEMIZOLE]" readout_kind=logD result=0.16
molecule="C1CCC(C(CC2CCCCN2)C2CCCCC2)CC1 (centres undefined) [PERHEXILINE]" readout_kind=logD result=2.81
molecule="O=c1[nH]c2ccccc2n1CCCN1CCC(n2c(=O)[nH]c3cc(Cl)ccc32)CC1 [DOMPERIDONE]" readout_kind=logD result=3.15

Asked: Answer with the recorded logD for the molecule listed here: COC(=O)[C@H]1[C@@H](OC(=O)c2ccccc2)C[C@@H]2CC[C@H]1N2C [COCAINE]
Given back: 0.41

Asked: Answer with the recorded logD for the molecule listed here: O=C1Cc2cc(CCN3CCN(c4nsc5ccccc45)CC3)c(Cl)cc2N1 [ZIPRASIDONE]
Given back: 3.93

Asked: Answer with the recorded logD for the molecule listed here: COc1c(N2CCNC(C)C2)c(F)cc2c(=O)c(C(=O)O)cn(C3CC3)c12 (centres undefined) [GATIFLOXACIN]
Given back: -2.96

###

experimental-details: Lipophilicity, log D at pH 7.0
experimental-setup: buffer
readout-kind: logD
// no unit string in output, number only

Solved entries (count: 2):
compound="CN(CCOc1ccc(NS(C)(=O)=O)cc1)CCc1ccc(NS(C)(=O)=O)cc1 [DOFETILIDE]" readout_kind=logD number=0.68
compound="COc1cc(N)c(Cl)cc1C(=O)NC1CCN(CCCOc2ccc(F)cc2)CC1OC (centres undefined) [CISAPRIDE]" readout_kind=logD number=2.05

Asked: Answer with the recorded logD for the compound listed here: O=C1NCCN1CCN1CCC(c2cn(-c3ccc(F)cc3)c3ccc(Cl)cc23)CC1
Given back: 2.65

Asked: Answer with the recorded logD for the compound listed here: Cc1nc2n(c(=O)c1CCN1CCC(c3noc4cc(F)ccc34)CC1)CCCC2
Given back: 0.71

Asked: Answer with the recorded logD for the compound listed here: CC(C)COCC(CN(Cc1ccccc1)c1ccccc1)N1CCCC1 (centres undefined)
Given back: 4.49

Asked: Answer with the recorded logD for the compound listed here: CN1CCN(CCCCN2C(=O)CN(/N=C/c3ccc(-c4ccc(Cl)cc4)o3)C2=O)CC1 [AZIMILIDE]
Given back: 2.05

Asked: Answer with the recorded logD for the compound listed here: O=C(O[C@@H]1C[C@@H]2C[C@H]3C[C@H](C1)N2CC3=O)c1c[nH]c2ccccc12
Given back: 2.6

Asked: Answer with the recorded logD for the compound listed here: CN1C2CCCC1CC(NC(=O)c1nn(C)c3ccccc13)C2 (centres undefined)
Given back: -1.72

Asked: Answer with the recorded logD for the compound listed here: Cc1c(F)c(N2CCNC(C)C2)cc2c1c(=O)c(C(=O)O)cn2C1CC1 (centres undefined)
Given back: -1.47

###

# logD values compiled below
experimental-details: Lipophilicity, log D at pH 7.0
experimental-setup: buffer
// no unit string in output, number only

Solved entries (count: 2):
compound="COc1ccc(Cl)cc1C(=O)NCCc1ccc(S(=O)(=O)NC(=O)NC2CCCCC2)cc1 [GLYBURIDE]" number=2.23
compound=CN1CCN(C2=Nc3cc(Cl)ccc3Nc3ccccc32)CC1 number=4.41

We now examine a further compound.
Asked: Answer with the recorded logD for the compound listed here: COc1ccc([C@@H]2Sc3ccccc3N(CCN(C)C)C(=O)[C@@H]2OC(C)=O)cc1
Given back: 1.62

###

experimental-details: Lipophilicity, log D at pH 7.0
experimental-setup: buffer
# logD values compiled below
// no unit string in output, number only

compound=COc1ccc(CCN2CCC(Nc3nc4ccccc4n3Cc3ccc(F)cc3)CC2)cc1 number=4.14
compound=CN(C)CCC=C1c2ccccc2CCc2ccccc21 number=3.33
compound="CCCCN(CCCC)CCC(O)c1cc2c(Cl)cc(Cl)cc2c2cc(C(F)(F)F)ccc12 (stereo not given)" number=5.68
compound=CN(c1nccc(=O)[nH]1)C1CCN(c2nc3ccccc3n2Cc2ccc(F)cc2)CC1 number=1.96

Asked: Answer with the recorded logD for the compound listed here: O=c1[nH]c2ccccc2n1C1CCN(CCCC(c2ccc(F)cc2)c2ccc(F)cc2)CC1 [PIMOZIDE]
Given back: 5.11
